Assay system: T1, soluble CGRP receptor (extracellular domains of human CRLR and human RAMP1) (human, UniProt Q16602 23-133; O60894 26-117)
T1 construct: the tag and the thrombin site are not described; also called soluble human CGRP receptor; CGRP receptor ECD
T1 sequence (Q16602 23-133, chain 1 of 2): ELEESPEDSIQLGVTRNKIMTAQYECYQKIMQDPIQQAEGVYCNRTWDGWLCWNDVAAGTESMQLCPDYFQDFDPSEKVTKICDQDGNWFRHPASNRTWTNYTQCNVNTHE
T1 sequence (O60894 26-117, chain 2 of 2): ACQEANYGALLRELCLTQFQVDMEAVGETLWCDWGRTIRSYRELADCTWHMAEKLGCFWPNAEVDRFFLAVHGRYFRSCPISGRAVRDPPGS
Measurement description: SPR (Biacore T200), antibody captured by goat anti-human Fc, soluble CGRP receptor as analyte, 1:1 model
pKd: −log10 of the molar value.
Endpoint label: pKd

4E4 light chain R95A single-point alanine variant antibody (antibody, V domains shown, Recombinantly expressed as a monoclonal antibody) VH: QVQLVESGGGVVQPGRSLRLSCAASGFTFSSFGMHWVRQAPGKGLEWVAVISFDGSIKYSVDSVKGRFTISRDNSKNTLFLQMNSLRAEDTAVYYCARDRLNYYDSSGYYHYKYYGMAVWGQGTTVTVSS VL: QSVLTQPPSVSAAPGQKVTISCSGSSSNIGNNYVSWYQQLPGTAPKLLIYDNNKRPSGIPDRFSGSKSGTSTTLGITGLQTGDEADYYCGTWDSALSAVVFGGGTKLTVLG    7.37
wild-type 4E4 anti-CGRP receptor monoclonal antibody (antibody, human IgG2, lambda, V domains shown, also called WT; 4E4 Ab) VH: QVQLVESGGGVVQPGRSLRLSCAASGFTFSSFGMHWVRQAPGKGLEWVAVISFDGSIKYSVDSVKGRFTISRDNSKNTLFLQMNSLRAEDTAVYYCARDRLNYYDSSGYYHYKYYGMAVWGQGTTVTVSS VL: QSVLTQPPSVSAAPGQKVTISCSGSSSNIGNNYVSWYQQLPGTAPKLLIYDNNKRPSGIPDRFSGSKSGTSTTLGITGLQTGDEADYYCGTWDSRLSAVVFGGGTKLTVLG    7.55
4E4 heavy chain K113A single-point alanine variant antibody (antibody, V domains shown, Recombinantly expressed as a monoclonal antibody) VH: QVQLVESGGGVVQPGRSLRLSCAASGFTFSSFGMHWVRQAPGKGLEWVAVISFDGSIKYSVDSVKGRFTISRDNSKNTLFLQMNSLRAEDTAVYYCARDRLNYYDSSGYYHYAYYGMAVWGQGTTVTVSS VL: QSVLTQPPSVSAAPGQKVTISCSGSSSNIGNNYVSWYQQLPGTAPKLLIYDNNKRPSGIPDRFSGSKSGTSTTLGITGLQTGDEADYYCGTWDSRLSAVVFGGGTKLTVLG    7.48
4E4 heavy chain D54A single-point alanine variant antibody (antibody, V domains shown, Recombinantly expressed as a monoclonal antibody) VH: QVQLVESGGGVVQPGRSLRLSCAASGFTFSSFGMHWVRQAPGKGLEWVAVISFAGSIKYSVDSVKGRFTISRDNSKNTLFLQMNSLRAEDTAVYYCARDRLNYYDSSGYYHYKYYGMAVWGQGTTVTVSS VL: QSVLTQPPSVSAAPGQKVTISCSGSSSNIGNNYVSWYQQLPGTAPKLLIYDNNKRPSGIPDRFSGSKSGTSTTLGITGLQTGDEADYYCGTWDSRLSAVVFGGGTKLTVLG    6.74
4E4 light chain Y33A single-point alanine variant antibody (antibody, V domains shown, Recombinantly expressed as a monoclonal antibody; also called L-Y33A) VH: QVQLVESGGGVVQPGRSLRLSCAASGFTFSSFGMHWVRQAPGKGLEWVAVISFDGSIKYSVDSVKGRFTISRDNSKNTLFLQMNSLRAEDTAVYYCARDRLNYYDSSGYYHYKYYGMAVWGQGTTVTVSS VL: QSVLTQPPSVSAAPGQKVTISCSGSSSNIGNNAVSWYQQLPGTAPKLLIYDNNKRPSGIPDRFSGSKSGTSTTLGITGLQTGDEADYYCGTWDSRLSAVVFGGGTKLTVLG    7.96
4E4 light chain K67A single-point alanine variant antibody (antibody, V domains shown, Recombinantly expressed as a monoclonal antibody) VH: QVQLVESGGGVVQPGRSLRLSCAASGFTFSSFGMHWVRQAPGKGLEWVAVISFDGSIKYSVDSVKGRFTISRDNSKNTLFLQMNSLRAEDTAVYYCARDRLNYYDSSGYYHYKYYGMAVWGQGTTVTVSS VL: QSVLTQPPSVSAAPGQKVTISCSGSSSNIGNNYVSWYQQLPGTAPKLLIYDNNKRPSGIPDRFSGSASGTSTTLGITGLQTGDEADYYCGTWDSRLSAVVFGGGTKLTVLG    7.54

Sourced from patent US20220363770A1
